ASSAY_DETAILS: Viscosity of aqueous solution
Type: physicochemical
OUTCOME_MEASURE: Viskosität bei 37°C und 300 mg I/ml

## Task What measured Viskosität bei 37°C und 300 mg I/ml goes with CN(C(=O)C(O)C(=O)N(C)c1c(I)c(C(=O)NCC(O)CO)c(I)c(C(=O)NCC(O)CO)c1I)c1c(I)c(C(N)=O)c(I)c(C(=O)NCC(O)CO)c1I (stereo not drawn) [Beispiel 7] ?
## Result 8,1 mPa·s

## Task What measured Viskosität bei 37°C und 300 mg I/ml goes with O=C(NCCO)c1c(I)c(C(=O)NCC(O)CO)c(I)c(N(CCO)C(=O)C(O)C(=O)N(CCO)c2c(I)c(C(=O)NCCO)c(I)c(C(=O)NCC(O)CO)c2I)c1I (stereo not drawn) [Beispiel 10] ?
## Result 7,3 mPa·s

## Task What measured Viskosität bei 37°C und 300 mg I/ml goes with NC(=O)c1c(I)c(C(=O)NCC(O)CO)c(I)c(N(CC(O)CO)C(=O)C(O)C(=O)N(CC(O)CO)c2c(I)c(C(N)=O)c(I)c(C(=O)NCC(O)CO)c2I)c1I (stereo not drawn) [Beispiel 12] ?
## Result 6,5 mPa·s

====

ASSAY_DETAILS: Solubility in water
Assay type: physicochemical
OUTCOME_MEASURE: Löslichkeit in Wasser bei 20°C und 300 mg I/ml

## Task What measured Löslichkeit in Wasser bei 20°C und 300 mg I/ml goes with CNC(=O)c1c(I)c(C(=O)NCC(O)CO)c(I)c(N(CCO)C(=O)C(O)C(=O)N(CCO)c2c(I)c(C(=O)NC)c(I)c(C(=O)NCC(O)CO)c2I)c1I (centres unmarked) ?
## Result <60%

## Task What measured Löslichkeit in Wasser bei 20°C und 300 mg I/ml goes with CN(C(=O)C(=O)C(=O)N(C)c1c(I)c(C(N)=O)c(I)c(C(=O)NCC(O)CO)c1I)c1c(I)c(C(N)=O)c(I)c(C(=O)NCC(O)CO)c1I (centres unmarked) ?
## Result <60%

## Task What measured Löslichkeit in Wasser bei 20°C und 300 mg I/ml goes with CN(C(=O)C(O)C(=O)N(C)c1c(I)c(C(N)=O)c(I)c(C(=O)NCC(O)CO)c1I)c1c(I)c(C(N)=O)c(I)c(C(=O)NCC(O)CO)c1I (centres unmarked) ?
## Result <60%

## Task What measured Löslichkeit in Wasser bei 20°C und 300 mg I/ml goes with O=C(NCCO)c1c(I)c(C(=O)NCC(O)CO)c(I)c(N(CC(O)CO)C(=O)C(O)C(=O)N(CC(O)CO)c2c(I)c(C(=O)NCCO)c(I)c(C(=O)NCC(O)CO)c2I)c1I (centres unmarked) ?
## Result >60%

## Task What measured Löslichkeit in Wasser bei 20°C und 300 mg I/ml goes with O=C(NCCO)c1c(I)c(C(=O)NCC(O)CO)c(I)c(N(CCO)C(=O)CC(=O)N(CCO)c2c(I)c(C(=O)NCCO)c(I)c(C(=O)NCC(O)CO)c2I)c1I (centres unmarked) ?
## Result >60%

====

ASSAY_DETAILS: Solubility in water
Assay type: physicochemical
OUTCOME_MEASURE: Löslichkeit in Wasser bei 20°C und 300 mg I/ml

# COMPOUND, RESULT
measured = [
    ("NC(=O)c1c(I)c(C(=O)NCC(O)CO)c(I)c(N(CC(O)CO)C(=O)C(O)C(=O)N(CC(O)CO)c2c(I)c(C(N)=O)c(I)c(C(=O)NCC(O)CO)c2I)c1I (stereo not drawn)", ">60%"),
    ("NC(=O)c1c(I)c(C(=O)NC(CO)C(O)CO)c(I)c(N(CCO)C(=O)C(O)C(=O)N(CCO)c2c(I)c(C(N)=O)c(I)c(C(=O)NC(CO)C(O)CO)c2I)c1I (stereo not drawn)", "<60%"),
]

Turning to the following compound.
## Task What measured Löslichkeit in Wasser bei 20°C und 300 mg I/ml goes with CN(C(=O)C(O)C(=O)N(C)c1c(I)c(C(N)=O)c(I)c(C(=O)NC(CO)C(O)CO)c1I)c1c(I)c(C(N)=O)c(I)c(C(=O)NC(CO)C(O)CO)c1I (stereo not drawn) ?
## Result <60%

Values were extracted from patent EP0673922A1.
